Target: EP1 receptors (Homo sapiens, UniProt P34995)
Sequence (P34995 whole entry): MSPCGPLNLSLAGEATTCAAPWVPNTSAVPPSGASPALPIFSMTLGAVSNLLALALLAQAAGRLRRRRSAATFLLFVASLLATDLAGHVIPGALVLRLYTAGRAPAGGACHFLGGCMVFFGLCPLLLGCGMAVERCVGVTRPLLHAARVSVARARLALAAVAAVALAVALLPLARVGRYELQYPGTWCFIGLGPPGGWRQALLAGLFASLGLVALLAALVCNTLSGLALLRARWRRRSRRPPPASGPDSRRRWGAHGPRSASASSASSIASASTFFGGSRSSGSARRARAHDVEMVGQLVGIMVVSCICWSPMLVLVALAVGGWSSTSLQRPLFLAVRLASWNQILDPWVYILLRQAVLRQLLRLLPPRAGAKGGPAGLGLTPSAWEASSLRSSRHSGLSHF
Test: Binding assay for the human prostanoid EP1 receptor (competition with [3H]-PGE2)
Set-up: expressed in transfected cells; host or cells: CHO-K1 cells, membrane fraction
Conditions: [3H]-PGE2 competition; averages of a number of experiments; read-out: pIC50 value, binding assay for the human prostanoid EP1 receptor (converted)
Counter-ions that a name gives are not always drawn.
measurement kind: IC50

molecule	result
CN1CCN(c2ccc3[nH]c(-c4csc(Cc5cc(Cl)ccc5OCc5ccccc5)n4)nc3n2)CC1 [Example 151, hydrochloride]	≤ 31.6 nM
O=C(O)Cc1csc(-c2cc(Cl)ccc2OCc2c(F)ccc(F)c2F)n1	≤ 1000 nM
O=C(O)c1csc(Cc2cc(C(F)(F)F)ccc2OCC2CC2)n1	≤ 31.6 nM
O=C(O)c1csc(Cc2cc(C(F)(F)F)ccc2OCc2ccccc2F)n1	≤ 31.6 nM
O=C1CN(Cc2ccc(NC(=O)c3csc(Cc4cc(Cl)ccc4OCc4ccccc4)n3)cc2)CCN1	≤ 31.6 nM

### Prompt Give the measured IC50 of "NC(=O)c1nc(Cc2cc(Cl)ccc2OCc2ccc(F)cc2Cl)cs1" .
### Response ≤ 1000 nM

### Prompt Here is the next molecule: "O=C(O)c1csc(Cc2cc(Cl)ccc2OCc2ccc(F)cc2)n1"
### Response ≤ 31.6 nM

### Prompt Here is the next molecule: "O=C(O)Cc1csc(-c2cc(Cl)ccc2OCc2ccc(Cl)cc2)n1"
### Response ≤ 31.6 nM

### Prompt Here is the next molecule: CC(C)COc1ccc(Cl)cc1Cc1nc(-c2nc3ccc(N4CCN(C)CC4)cc3[nH]2)cs1 [Example 142, hydrochloride]
### Response ≤ 31.6 nM

### Prompt Here is the next molecule: "O=C(O)c1csc(Cc2cc(Cl)ccc2OCc2c(F)ccc(F)c2F)n1"
### Response ≤ 1000 nM

### Prompt Here is the next molecule: "O=C(O)Cc1csc(-c2cc(Cl)ccc2OCc2ccccc2)n1"
### Response ≤ 31.6 nM

### Prompt Here is the next molecule: "O=C(O)c1csc(Cc2cc(C(F)(F)F)ccc2OCC2CCC2)n1"
### Response ≤ 31.6 nM

### Prompt Here is the next molecule: "O=C(O)c1csc(Cc2cc(C(F)(F)F)ccc2OCc2ccc(Br)cc2)n1"
### Response ≤ 31.6 nM

### Prompt Here is the next molecule: "O=C(NS(=O)(=O)c1ccccc1)c1csc(Cc2cc(Cl)ccc2OCc2ccccc2F)n1"
### Response ≤ 31.6 nM

### Prompt Here is the next molecule: "CC(C)COc1ccc(C(F)(F)F)cc1Cc1nc(C(=O)O)cs1"
### Response ≤ 31.6 nM

### Prompt Here is the next molecule: "CC(C)COc1ccc(Cl)cc1Cc1nc(-c2nc3ccc(N4CCOCC4)nc3[nH]2)cs1"
### Response ≤ 1000 nM

### Prompt Here is the next molecule: "Clc1ccc(OCc2ccccc2)c(Cc2nc(-c3nc4ccc(CN5CCCCC5)cc4[nH]3)co2)c1"
### Response ≤ 1000 nM

### Prompt Here is the next molecule: "O=C(O)c1csc(Cc2cc(Cl)ccc2OCc2cc(F)c(F)cc2F)n1"
### Response ≤ 31.6 nM

### Prompt Here is the next molecule: "O=C(O)c1csc(Cc2cc(Br)ccc2OCc2ccc(Cl)cc2F)n1"
### Response ≤ 31.6 nM

### Prompt Here is the next molecule: "O=C(O)Cc1coc(-c2cc(Cl)ccc2OCc2c(F)cc(F)cc2F)n1"
### Response ≤ 1000 nM

### Prompt Here is the next molecule: "O=C(O)c1csc(Cc2cc(Cl)ccc2OCC2CCCC2)n1"
### Response ≤ 31.6 nM

### Prompt Here is the next molecule: "CCC(=O)Nc1csc(Cc2cc(Cl)ccc2OCc2ccccc2)n1"
### Response ≤ 1000 nM

### Prompt Here is the next molecule: "O=C(NS(=O)(=O)c1ccccc1)c1csc(Cc2cc(Cl)ccc2OCc2ccccc2)n1"
### Response ≤ 31.6 nM

### Prompt Here is the next molecule: CC(C(=O)O)c1csc(-c2cc(Br)ccc2OCc2ccccc2)n1 (stereo not drawn)
### Response ≤ 1000 nM

### Prompt Here is the next molecule: "O=C(Nc1csc(Cc2cc(Cl)ccc2OCc2ccccc2)n1)c1ccc(CO)cc1"
### Response ≤ 1000 nM

### Prompt Here is the next molecule: "CC(C)COc1ccc(Cl)cc1Cc1nc(-c2nc3ccc(CN(C)C)cc3[nH]2)co1"
### Response ≤ 31.6 nM

### Prompt Here is the next molecule: "CC(C)CNC(=O)c1csc(Cc2cc(Cl)ccc2OCc2ccccc2)n1"
### Response ≤ 1000 nM

###

Target: EP1 receptors (Homo sapiens)
Experiment: Binding assay for the human prostanoid EP1 receptor (competition with [3H]-PGE2)
Set-up: expressed in transfected cells; host or cells: CHO-K1 cells, membrane fraction
Conditions: [3H]-PGE2 competition; averages of a number of experiments; read-out: pIC50 value, binding assay for the human prostanoid EP1 receptor (converted)
Parameter: IC50. Scope: all listed entries.

CC(C)COc1ccc(Cl)cc1Cc1nc(-c2nc3cc(F)c(F)cc3[nH]2)cs1 ≤ 1 µM
O=C(O)c1csc(Cc2cc(Cl)ccc2OCc2ccccc2)n1 ≤ 0.0316 µM
O=C(O)Cc1csc(-c2cc(Cl)ccc2OCc2ccc(F)cc2Cl)n1 ≤ 1 µM
O=C(NS(=O)(=O)c1ccccc1)c1csc(Cc2cc(Cl)ccc2OCc2ccc(F)cc2)n1 ≤ 0.0316 µM
O=C(O)c1csc(Cc2cc(Br)ccc2OCc2ccc(F)cc2F)n1 ≤ 0.0316 µM

### Prompt Give the measured IC50 of "O=C(O)c1csc(Cc2cc(C(F)(F)F)ccc2OCc2ccc(F)cc2F)n1" .
### Response ≤ 0.0316 µM

### Prompt Here is the next compound: "O=C(O)c1csc(Cc2cc(C(F)(F)F)ccc2OCc2ccccc2Cl)n1"
### Response ≤ 0.0316 µM

###

Molecular target: EP1 receptors (Homo sapiens, UniProt P34995)
Assay: Binding assay for the human prostanoid EP1 receptor (competition with [3H]-PGE2)
Set-up: expressed in transfected cells; host or cells: CHO-K1 cells, membrane fraction
Conditions: [3H]-PGE2 competition; averages of a number of experiments; read-out: pIC50 value, binding assay for the human prostanoid EP1 receptor (converted)
Procedure: Competition assay using [^3H]-PGE2. Compound potencies are determined using a radioligand binding assay. In this assay compound potencies are determined from their ability to compete with tritiated prostaglandin E2 ([^3H]-PGE2) for binding to the human EP1 receptor. This assay utilises Chinese hamster ovary-K1 (CHO-K1) cells into which a stable vector containing the EP1 cDNA has previously been transfected. […]
Structures can show the parent of a compound that is named as a salt.
measurement kind: IC50

Answered examples (3):
compound	IC50
CC(C)COc1ccc(Cl)cc1Cc1nc(-c2nc3ccc(CN4CCCCC4)cc3[nH]2)co1	≤ 31.6 nM
CC(C)COc1ccc(Cl)cc1Cc1nc(-c2nc3ccc(CCN4CCN(C)CC4)cc3[nH]2)cs1	≤ 31.6 nM
O=C(NS(=O)(=O)c1ccccc1)c1csc(Cc2cc(Cl)ccc2OCc2ccc(Cl)cc2F)n1	≤ 31.6 nM

### Prompt Recorded IC50 for "O=C(Cc1ccccc1)Nc1csc(Cc2cc(Cl)ccc2OCc2ccccc2)n1" with EP1 receptors (Homo sapiens, UniProt P34995), please?
### Response ≤ 1000 nM

### Prompt Here is the next compound: "O=C(O)c1csc(Cc2cc(C(F)(F)F)ccc2OCc2ccc(F)cc2Cl)n1"
### Response ≤ 31.6 nM

### Prompt Here is the next compound: "O=C(O)c1csc(Cc2cc(C(F)(F)F)ccc2OCc2cc(F)c(F)cc2F)n1"
### Response ≤ 31.6 nM

### Prompt Here is the next compound: "CC(C)(C(=O)O)c1csc(-c2cc(Br)ccc2OCc2ccccc2)n1"
### Response ≤ 1000 nM

### Prompt Here is the next compound: "CC(C)COc1ccc(Cl)cc1Nc1nc(-c2nc3ccc(CN(C)C)cc3[nH]2)cs1"
### Response ≤ 31.6 nM

### Prompt Here is the next compound: "CN1CCN(CCc2ccc3nc(-c4csc(Cc5cc(Cl)ccc5OCc5ccccc5)n4)[nH]c3c2)CC1"
### Response ≤ 31.6 nM

### Prompt Here is the next compound: CN(C)c1ccc2nc(-c3csc(Cc4cc(Cl)ccc4OCc4ccccc4)n3)[nH]c2n1 [Example 152, hydrochloride]
### Response ≤ 31.6 nM

### Prompt Here is the next compound: "CNCc1ccc2nc(-c3coc(Cc4cc(Cl)ccc4OCC(C)C)n3)[nH]c2c1"
### Response ≤ 31.6 nM

### Prompt Here is the next compound: "CN1CCN(Cc2ccc3nc(-c4coc(Cc5cc(Cl)ccc5OCc5ccccc5)n4)[nH]c3c2)CC1"
### Response ≤ 1000 nM

### Prompt Here is the next compound: "O=C(Nc1ccc(CN2CCOCC2)cc1)c1csc(Cc2cc(Cl)ccc2OCc2ccccc2)n1"
### Response ≤ 1000 nM

### Prompt Here is the next compound: "O=C(O)c1csc(Cc2cc(Br)ccc2OCc2c(F)ccc(F)c2F)n1"
### Response ≤ 31.6 nM
